Experiment: yeast display, Sf9 membrane polyspecificity reagent, FACS + sequencing; frameworks hold sequencing errors
MEASURED_PROPERTY: polyreactivity (PSR sort gate)

Example entries begin here.
SEQUENCE_INPUT	polyreactivity (PSR sort gate)
QVQLVESGGGLVQAGGSLRLSFAASGFTFGYYTMGWYRQAPGKERELVAAITSGGGTYYADSVKGRFTISRDNAKNTVYLQMNSLKPEDTAVYYCATTPVWYKVSRRYGYWGQGTQVTVSS	high polyreactivity
KSGGGLVQAGGSLRLSCAASGRIYVEYAMAWYKQAPGKERELVASISWSGDSTYYAESVKGRFTISRDNAKNTVYSQKKSLKPEATAVYYCNADGQVGYAVSYDYWGQGTQVTVSS	low polyreactivity
QVQHVESGGGLGQAGGSLRLSCAASGLTFSVYAMGWSRQAPGKERELYAAISYSGVSTYADSEKGRFTISRDNAKNTVYLQMNSLKPEDTAVYYCNARWVREGYRRWYDYWGQGTQVTVSS	low polyreactivity
QVQRVESGGGLVQAGGSLRLSCAASAFTFGANAMGWSRQAPGKERELVAAISVSDGITYYADSVKGRFTISRDNAKNTVYLLMNSLKPEDTAVYYCAAETYGYLFHSYDYWGQGTQVTVSS	low polyreactivity

# next sequence below
Could you share which polyreactivity (PSR sort gate) value was measured for QVQLVESGGGLVQAGGSLRLSCAASGFIFSRYAKGWSRPAPGKERELVAAITRGGGDTYYADSVKGRFTISRDNAKNTVYLQMNSLKPEDTAVYYCNARYRRYTTRFGAMDYWGQGTQVTVSS ? high polyreactivity
